# testProtocol: Chronic administration, maximum tolerated dose in the rat
# Assay type: in vivo
# testParameters: rat, in vivo, administration chronique, read-out: dose maximale tolérée
parameterMeasured: MTD

MTD in this record for CCOC(=O)C(C)(C)Oc1ccc(Cl)cc1 [Clofibrate] : ~100 mg/kg
